The measurements presented in this section are drawn from patent US20050203007A1.

- target.of.assay: T1, secreted, soluble Kex2 (Saccharomyces cerevisiae, UniProt P13134 114-613, limits assumed)
- T1 construct: Secreted, soluble construct; also called kexin
- T1 sequence (looked up): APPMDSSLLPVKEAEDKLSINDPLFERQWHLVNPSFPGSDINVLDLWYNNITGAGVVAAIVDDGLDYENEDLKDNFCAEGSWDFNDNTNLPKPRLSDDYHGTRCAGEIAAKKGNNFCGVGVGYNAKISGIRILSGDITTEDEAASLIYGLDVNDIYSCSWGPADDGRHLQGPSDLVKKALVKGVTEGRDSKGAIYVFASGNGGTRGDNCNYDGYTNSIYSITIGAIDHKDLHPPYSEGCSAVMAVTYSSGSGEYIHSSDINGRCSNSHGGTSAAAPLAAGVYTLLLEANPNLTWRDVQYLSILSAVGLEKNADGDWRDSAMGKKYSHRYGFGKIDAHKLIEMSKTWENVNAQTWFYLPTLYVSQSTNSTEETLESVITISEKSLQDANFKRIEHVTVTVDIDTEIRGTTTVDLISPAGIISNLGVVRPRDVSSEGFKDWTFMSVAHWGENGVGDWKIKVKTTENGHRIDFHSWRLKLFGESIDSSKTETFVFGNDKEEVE
- procedure.summary: enzyme inhibition, purified variant
measured.parameter: log10(Ki) (log10 of the value in nM)

binder="Asp33Val-R4K1-eglin (designed binder, R4K1 template; N-terminal Met removed) SMGSELKSFPEVVGKTVDQAREYFTLHYPQYVVYFLPEGSRVTKDLRYNRVRVFYNPGTNVVNHVPHVG" measured_parameter=log10(Ki) measured_value=0.08
binder="Leu37Gly-R4K1-eglin (designed binder, R4K1 template; N-terminal Met removed) SMGSELKSFPEVVGKTVDQAREYFTLHYPQYDVYFGPEGSRVTKDLRYNRVRVFYNPGTNVVNHVPHVG" measured_parameter=log10(Ki) measured_value=0.20
binder="R4K1-eglin (designed binder, N-terminal Met removed; also called R4K1-template) SMGSELKSFPEVVGKTVDQAREYFTLHYPQYDVYFLPEGSRVTKDLRYNRVRVFYNPGTNVVNHVPHVG" measured_parameter=log10(Ki) measured_value=0.40
binder="Tyr49Ala-R4R1-eglin (designed binder, R4R1 template; N-terminal Met removed; also called Ala49-R4R1-) SMGSELKSFPEVVGKTVDQAREYFTLHYPQYDVYFLPEGSRVTRDLRANRVRVFYNPGTNVVNHVPHVG" measured_parameter=log10(Ki) measured_value=0.00
binder="R4R1-eglin (designed binder, N-terminal Met removed; also called Tyr49-R4R1-; D33Y49) SMGSELKSFPEVVGKTVDQAREYFTLHYPQYDVYFLPEGSRVTRDLRYNRVRVFYNPGTNVVNHVPHVG" measured_parameter=log10(Ki) measured_value=-0.04
binder="Tyr49Asp-R4R1-eglin (designed binder, R4R1 template; N-terminal Met removed; also called Asp49-R4R1-eglin; Asp49-R4R1-) SMGSELKSFPEVVGKTVDQAREYFTLHYPQYDVYFLPEGSRVTRDLRDNRVRVFYNPGTNVVNHVPHVG" measured_parameter=log10(Ki) measured_value=-1.35
